This listing pairs molecules with measured pIC50.
assayed_system: Recombinant autotaxin (Homo sapiens)
assay_protocol: Autotaxin assay (Amplex Red, LPC substrate)
reported_conditions: recombinant autotaxin, LPC substrate, Amplex Red detection; values given as upper bounds
pIC50: −log10 of the molar value.

O=C(OCc1cc(Cl)cc(C(F)(F)F)c1F)N1CCN(C2CCN(C(=O)c3ccc4[nH]nnc4c3)CC2)CC1; > 6.00
O=C(OCc1ccc(C(F)(F)F)cc1)N1CCN(CC2CCN(C(=O)c3ccc4[nH]nnc4c3)CC2)CC1; > 5.00
O=C(OCc1ccc(C(F)(F)F)cc1F)N1CCC(N2CCN(C(=O)c3ccc4[nH]nnc4c3)CC2)CC1; > 6.00

Kindly consider the entry below.
[in] Any idea what pIC50 was measured for `CC(C)c1ccc(COC(=O)N2CCN(C3CCN(C(=O)c4ccc5[nH]nnc5c4)CC3)CC2)cc1` ?
[out] > 6.00

---

assayed_system: Recombinant autotaxin (Homo sapiens)
assay_protocol: Autotaxin assay (Amplex Red, LPC substrate)
reported_conditions: recombinant autotaxin, LPC substrate, Amplex Red detection; values given as upper bounds
pIC50: −log10 of the molar value.
measured_metric: pIC50

A selection of reference data follows.
O=C(OCc1ccc(Cl)c(Cl)c1)N1CCN(C2CCN(C(=O)c3ccc4[nH]nnc4c3)CC2)CC1 [Compound 45]; > 6.00
O=C(Nc1ccc2[nH]nnc2c1)C1CC(=O)N(C2CCN(C(=O)OCc3ccc(Cl)cc3)CC2)C1 (stereo not shown) [Compound 2]; > 6.00

[in] Return reported pIC50; argument: O=C(OCc1ccc(C(F)(F)F)c(Cl)c1)N1CCC(N2CCN(C(=O)c3ccc4[nH]nnc4c3)CC2)CC1 [Compound 92]
[out] > 6.00

[in] # lookup: pIC50 of O=C(NC1CCC(N2CCN(C(=O)OCc3cc(Cl)cc(C(F)(F)F)c3)CC2)CC1)c1ccc2[nH]nnc2c1 (stereo not shown) [Compound 187]
[out] > 6.00

[in] pIC50 for O=C(CCc1ccc(Cl)cc1F)N1CCN(C2CCN(C(=O)c3ccc4[nH]c(=O)oc4c3)CC2)CC1 [Compound 64] ?
[out] > 5.00

[in] Look up pIC50: O=C(c1ccc2[nH]nnc2c1)N1CCC(N2CCN(C(=O)c3ccccc3-c3cccc(C(F)(F)F)c3)CC2)CC1 [Compound 125]
[out] > 5.00

[in] Quick one: pIC50 for O=C(OCc1cc(Br)cc(Br)c1)N1CCN(C2CCN(C(=O)c3ccc4[nH]nnc4c3)CC2)CC1 [Compound 148] ?
[out] > 6.00

---

assayed_system: Recombinant autotaxin (Homo sapiens, UniProt Q13822)
Construct: made in house; host or cells: Hi5 insect cells (baculovirus)
assay_protocol: Autotaxin assay (Amplex Red, LPC substrate)
Format: biochemical
reported_conditions: % of control at 1E−05 (compound concentration); uninhibited control = 100%
measured_metric: % CTRL (1E−05) (%)
Write the value in % as a bare number.

Consider the worked cases shown below.
CS(=O)(=O)c1ccc(CCC(=O)N2CCC(N3CCN(C(=O)c4ccc5[nH]nnc5c4)CC3)CC2)cc1; 89
N#Cc1ccc(CCC(=O)N2CCC(N3CCN(C(=O)c4ccc5[nH]nnc5c4)CC3)CC2)cc1; 77

[in] Identify the measured % CTRL (1E−05) of `O=C(Cc1ccc(C(F)(F)F)c(F)c1)N1CCN(C2CCN(C(=O)c3ccc4[nH]nnc4c3)CC2)CC1` for Recombinant autotaxin (Homo sapiens, UniProt Q13822).
[out] 24

[in] // map `O=C(c1cc(Cl)c(F)c(Cl)c1)N1CCC(N2CCN(C(=O)c3ccc4[nH]nnc4c3)CC2)CC1` to recorded % CTRL (1E−05) (system: Recombinant autotaxin (Homo sapiens, UniProt Q13822))
[out] 66

[in] State its % CTRL (1E−05) on Recombinant autotaxin (Homo sapiens, UniProt Q13822): O=C(Nc1ccc2[nH]nnc2c1)C1CC(=O)N(C2CCN(C(=O)OCC3CCCO3)CC2)C1 (centres unmarked)
[out] 83
